Recorded S.I. MRC-5/Colo 205, one value per entry.
Tested on: Colo 205 chemo-sensitive human colonic adenocarcinoma cell line
Test: MTT cytotoxicity assay, Colo 205
Type: cell-based
Conditions: ratio of the indicated IC50 values
I only need the number, thanks.

Cc1ccc(C(C)C)cc1.[Cl-].[O-]n1ccccc1=S.[Ru+2]	0.15

[ask] Under Colo 205 chemo-sensitive human colonic adenocarcinoma cell line: report S.I. MRC-5/Colo 205 of C1N2CN3CN1CP(C2)C3.Cc1ccc(C(C)C)cc1.F[P-](F)(F)(F)(F)F.O=C(C=C([O-])C(F)(F)F)c1ccc(Cl)cc1.[Ru+2] .
[reply] 0.22

[ask] Under Colo 205 chemo-sensitive human colonic adenocarcinoma cell line: report S.I. MRC-5/Colo 205 of Cc1ccc(C(C)C)cc1.[Cl-].[O-]n1ccc2ccccc2c1=S.[Ru+2] .
[reply] 0.44

----------
Recorded FAR fluorescence accumulation ratio, one value per entry.
Biological target: ABCB1 (P-glycoprotein) efflux pump (Homo sapiens, UniProt P08183)
Sequence (P08183 whole entry): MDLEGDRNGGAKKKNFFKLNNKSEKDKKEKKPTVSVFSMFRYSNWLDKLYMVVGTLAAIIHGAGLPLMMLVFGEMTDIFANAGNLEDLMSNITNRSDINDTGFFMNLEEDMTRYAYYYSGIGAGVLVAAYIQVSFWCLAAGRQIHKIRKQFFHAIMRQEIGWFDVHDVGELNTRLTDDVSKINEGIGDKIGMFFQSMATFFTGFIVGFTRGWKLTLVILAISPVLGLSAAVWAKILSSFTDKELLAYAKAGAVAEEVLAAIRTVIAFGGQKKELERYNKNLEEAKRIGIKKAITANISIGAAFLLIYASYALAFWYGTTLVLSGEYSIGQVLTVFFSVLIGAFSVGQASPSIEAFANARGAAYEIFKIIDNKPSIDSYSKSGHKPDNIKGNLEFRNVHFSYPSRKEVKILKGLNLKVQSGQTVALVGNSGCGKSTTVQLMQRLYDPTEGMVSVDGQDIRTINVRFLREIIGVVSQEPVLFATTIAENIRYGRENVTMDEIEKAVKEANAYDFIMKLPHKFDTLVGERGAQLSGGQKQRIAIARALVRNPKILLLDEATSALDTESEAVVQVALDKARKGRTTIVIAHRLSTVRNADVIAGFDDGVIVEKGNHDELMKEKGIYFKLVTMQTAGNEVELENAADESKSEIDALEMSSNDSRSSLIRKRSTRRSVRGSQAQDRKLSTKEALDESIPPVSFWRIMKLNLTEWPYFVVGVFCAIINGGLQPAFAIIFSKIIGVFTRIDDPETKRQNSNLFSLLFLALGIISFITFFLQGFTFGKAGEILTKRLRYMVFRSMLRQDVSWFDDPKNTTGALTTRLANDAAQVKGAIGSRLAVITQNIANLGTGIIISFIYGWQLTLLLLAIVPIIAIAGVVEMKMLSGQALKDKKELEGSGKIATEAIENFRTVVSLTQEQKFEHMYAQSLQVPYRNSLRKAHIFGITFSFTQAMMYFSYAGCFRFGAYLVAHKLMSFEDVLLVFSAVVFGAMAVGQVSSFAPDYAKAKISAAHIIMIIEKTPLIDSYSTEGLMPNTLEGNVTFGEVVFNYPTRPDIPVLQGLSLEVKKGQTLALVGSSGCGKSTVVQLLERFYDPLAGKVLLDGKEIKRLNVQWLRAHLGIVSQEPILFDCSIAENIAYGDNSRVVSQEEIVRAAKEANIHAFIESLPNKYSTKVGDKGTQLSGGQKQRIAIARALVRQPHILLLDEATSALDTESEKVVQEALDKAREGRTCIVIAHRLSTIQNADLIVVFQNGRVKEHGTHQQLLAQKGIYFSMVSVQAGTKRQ
Experiment: Rhodamine 123 uptake/retention fluorescence assay (flow cytometry) in Colo 320 cells
Details: Colo 320, 2 μM
I only need the number, thanks.

Worked set:
Cc1ccc(C(C)C)cc1.[Cl-].[O-]c1c(I)cc(Cl)c2cccnc12.[Ru+2]	6.19
Cc1ccc(C(C)C)cc1.O=C(C=C([O-])C(F)(F)F)c1ccc(Cl)cc1.[Cl-].[Ru+2]	1.11
C1N2CN3CN1CP(C2)C3.Cc1ccc(C(C)C)cc1.F[P-](F)(F)(F)(F)F.[O-]n1ccc2ccccc2c1=S.[Ru+2]	0.82
C1N2CN3CN1CP(C2)C3.Cc1ccc(C(C)C)cc1.F[P-](F)(F)(F)(F)F.[O-]n1ccccc1=S.[Ru+2]	1.02

For the next question, use this compound.
[ask] Under ABCB1 (P-glycoprotein) efflux pump (Homo sapiens, UniProt P08183): report FAR fluorescence accumulation ratio of C1N2CN3CN1CP(C2)C3.Cc1ccc(C(C)C)cc1.F[P-](F)(F)(F)(F)F.O=C(C=C([O-])C(F)(F)F)c1ccc(Cl)cc1.[Ru+2] .
[reply] 0.66

----------
Assay: physchem
QUANTITY NAME: pKa
I only need the number, thanks.

[ask] Consider the compound On1ccc2ccccc2c1=S [HHiQT, 2-hydroxyisoquinoline-1(2H)-thione] and give its recorded pKa.
[reply] 4.63

----------
Target: Human serum albumin (HSA) (Homo sapiens, UniProt P02768)
Construct: purchased Sigma-Aldrich A8763
Sequence (P02768 25-609): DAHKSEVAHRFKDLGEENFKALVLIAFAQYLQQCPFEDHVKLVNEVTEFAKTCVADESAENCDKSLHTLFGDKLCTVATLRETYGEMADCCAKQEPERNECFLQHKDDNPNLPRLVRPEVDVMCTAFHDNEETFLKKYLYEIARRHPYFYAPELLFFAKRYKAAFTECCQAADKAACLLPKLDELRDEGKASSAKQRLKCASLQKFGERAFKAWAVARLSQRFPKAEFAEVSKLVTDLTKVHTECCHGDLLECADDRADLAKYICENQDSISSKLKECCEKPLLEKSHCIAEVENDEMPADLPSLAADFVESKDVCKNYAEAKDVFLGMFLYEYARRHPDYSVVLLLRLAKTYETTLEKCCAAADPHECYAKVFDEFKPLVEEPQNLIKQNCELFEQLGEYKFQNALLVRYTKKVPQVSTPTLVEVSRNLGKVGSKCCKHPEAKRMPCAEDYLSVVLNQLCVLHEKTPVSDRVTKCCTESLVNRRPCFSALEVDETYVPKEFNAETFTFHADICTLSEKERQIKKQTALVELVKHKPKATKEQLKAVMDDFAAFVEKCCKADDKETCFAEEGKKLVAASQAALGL
Experiment: HSA binding by spectrofluorometry (Trp-214 quenching, site marker displacement)
Conditions: titration, pH 7.40 PBS’, 25 °C, site I
Recorded logKQ’ (Trp-214 quenching), one value per entry.
I only need the number, thanks.

Worked set:
Cc1ccc(C(C)C)cc1.[Cl-].[O-]n1ccccc1=S.[Ru+2] [complex 1]	5.81
C1N2CN3CN1CP(C2)C3.Cc1ccc(C(C)C)cc1.F[P-](F)(F)(F)(F)F.[O-]n1ccc2ccccc2c1=S.[Ru+2] [complex 4]	4.46

For the next question, use this compound.
[ask] Consider the compound Cc1ccc(C(C)C)cc1.[Cl-].[O-]n1ccc2ccccc2c1=S.[Ru+2] [complex 3] and give its recorded logKQ’ (Trp-214 quenching).
[reply] 6.18

----------
Molecular target: UniProt:P08183
Assay: Rhodamine 123 uptake/retention fluorescence assay (flow cytometry) in Colo 320 cells
Settings: Colo 320, 2 μM
Procedure: It is important to note, that the resistance of this cell line is primarily mediated by the overexpression of the ABC-transporter P-glycoprotein, which pumps out xenobiotics from the cytosol. […] Then the fluorescence accumulation ratios (FAR) were calculated (Figure 1) according to the equation given in the Materials and Methods section. […] This fluorescence-based detection system uses verapamil (a first-generation, competitive EPI) as reference inhibitor. […]
QUANTITY NAME: FSC forward scatter count
I only need the number, thanks.

Cc1ccc(C(C)C)cc1.[Cl-].[O-]c1c(I)cc(Cl)c2cccnc12.[Ru+2]	1917
C1N2CN3CN1CP(C2)C3.Cc1ccc(C(C)C)cc1.F[P-](F)(F)(F)(F)F.O=C(C=C([O-])C(F)(F)F)c1ccc(Cl)cc1.[Ru+2]	1925
Cc1ccc(C(C)C)cc1.O=C(C=C([O-])C(F)(F)F)c1ccc(Cl)cc1.[Cl-].[Ru+2]	1988
C1N2CN3CN1CP(C2)C3.Cc1ccc(C(C)C)cc1.F[P-](F)(F)(F)(F)F.[O-]n1ccc2ccccc2c1=S.[Ru+2]	2014

For the next question, use this compound.
[ask] Consider the compound C1N2CN3CN1CP(C2)C3.Cc1ccc(C(C)C)cc1.F[P-](F)(F)(F)(F)F.[O-]n1ccccc1=S.[Ru+2] and give its recorded FSC forward scatter count.
[reply] 2034
